molecular target: Histone deacetylase; test: Inhibition of HDAC in human HeLa nuclear extract measured after 30 mins by fluorescence based assay; format: cell-free
PROPERTY_LABEL: IC50 (µM)

entry_smiles=O=C(CCCCCSc1nc2c([nH]c3ccccc32)c(=O)[nH]1)NO study_target="Histone deacetylase" unit_of_measurement=µM numeric_readout=2.58
entry_smiles=O=C(/C=C/c1ccc(CSc2nc3c([nH]c4ccccc43)c(=O)[nH]2)cc1)NO study_target="Histone deacetylase" unit_of_measurement=µM numeric_readout=2.38
entry_smiles=O=C(CCCCSc1nc2c([nH]c3ccccc32)c(=O)[nH]1)NO study_target="Histone deacetylase" unit_of_measurement=µM numeric_readout=4.67
entry_smiles=CCn1c(SCCCCC(=O)NO)nc2c([nH]c3ccccc32)c1=O study_target="Histone deacetylase" unit_of_measurement=µM numeric_readout=5.9
